test system: A549; test: Cytotoxicity against human A549 cells assessed as reduction in cell viability after 48 hrs by MTT assay; assay type: functional, cell-based; conditions: A549, 48 h
REPORTED_METRIC: IC50 (µM)
One number for each entry, in µM.

Some compounds with known IC50 results, for comparison:
[[record]]
compound = "COC(=O)CCC[C@@H]1[C@H]2CCCN3CCC[C@H](CN1Cc1cn(Cc4ccccc4F)c4ccccc14)[C@@H]23"
target = "A549"
reported_metric = "IC50"
observed_result = 49.3

[[record]]
compound = "COC(=O)CCC[C@@H]1[C@H]2CCCN3CCC[C@H](CN1Cc1cn(Cc4ccc(F)cc4)c4ccccc14)[C@@H]23"
target = "A549"
reported_metric = "IC50"
observed_result = 29.6

[[record]]
compound = "COC(=O)CCC[C@@H]1[C@H]2CCCN3CCC[C@H](CN1Cc1cn(Cc4c(Cl)cccc4Cl)c4ccccc14)[C@@H]23"
target = "A549"
reported_metric = "IC50"
observed_result = 3.7

[[record]]
compound = "COC(=O)CCC[C@@H]1[C@H]2CCCN3CCC[C@H](CN1Cc1cn(Cc4ccc(Br)cc4)c4ccccc14)[C@@H]23"
target = "A549"
reported_metric = "IC50"
observed_result = 3.5

[[record]]
compound = "O=C1CCC[C@@H]2[C@H]3CCCN4CCC[C@H](CN12)[C@@H]34 [SOPHORIDINE]"
target = "A549"
reported_metric = "IC50"
observed_result = 5840


Return reported IC50 values for all items listed beneath this line.
1. OCCCC[C@@H]1[C@H]2CCCN3CCC[C@H](CN1Cc1cn(Cc4ccc(Br)cc4)c4ccccc14)[C@@H]23
2. CCCCn1cc(CN2C[C@H]3CCCN4CCC[C@@H]([C@H]34)[C@H]2CCCC(=O)OC)c2ccccc21
3. COC(=O)CCC[C@@H]1[C@H]2CCCN3CCC[C@H](CN1Cc1cn(Cc4cccc(F)c4)c4ccccc14)[C@@H]23
4. CCn1cc(CN2C[C@H]3CCCN4CCC[C@@H]([C@H]34)[C@H]2CCCC(=O)OC)c2ccccc21

1. 22.1
2. 42.8
3. 42.3
4. 37.4
